# METHOD: Serum protease stability in 10% fetal calf serum (RP-HPLC)
# Assay type: in vitro ADME
# PARTICULARS: cattle (fetal calf), 10% fetal calf serum in phosphate buffer; 10 h; 10% FCS, pH 7.3; read-out: % residual peptide ± SD
MEASUREMENT_LABEL: remaining at 10 h, 10 μmol/L (%)
All answers are understood in %, so give the number only.

Req: I have this molecule here, NC(=O)[C@@H](CS)NC(=O)C(CCCCNC(=O)C(CCCCNC(=O)[C@H](CC1CCCCC1)NC(=O)C(CSCc1ccccc1)NC(=O)[C@H](N)CCC(=O)O)NC(=O)[C@H](CC1CCCCC1)NC(=O)C(CSCc1ccccc1)NC(=O)[C@H](N)CCC(=O)O)NC(=O)C(CCCCNC(=O)[C@H](CC1CCCCC1)NC(=O)C(CSCc1ccccc1)NC(=O)[C@H](N)CCC(=O)O)NC(=O)[C@H](CC1CCCCC1)NC(=O)C(CSCc1ccccc1)NC(=O)[C@H](N)CCC(=O)O (stereo partly shown) [iVR1-Cys] , and I need its recorded remaining at 10 h, 10 μmol/L.
Resp: 94
